Data credit: patent EP4725957A1

Please provide measured IC50 at 72 h for the entries that follow.
# Experiment Notes: Nephrotoxicity assay: in vitro cytotoxicity of HK-2 cells by CCK-8 assay
# Type: cell-based
# Measurement Context: human, HK-2 cells (human renal), 72 h incubation with drug-containing medium
Bridge positions count the residues as written; N and C are the ends. Square brackets hold non-standard residues; d marks the D form. Peptide text beside a SMILES is read from it. * marks the point of attachment. X1 = CC[C@H](C)CCCCC(=O)*; dDab = NCC[C@@H](N)C(=O)O; Orn = NCCC[C@H](N)C(=O)O; Dab = NCC[C@H](N)C(=O)O; Dap = NC[C@H](N)C(=O)O

I'd like to know its IC50 at 72 h. The molecule in question is CC[C@H](C)CCCCC(=O)N[C@@H](CCCN)C(=O)N[C@H](C(=O)N[C@H](CO)C(=O)N[C@H]1CCNC(=O)[C@H]([C@@H](C)O)NC(=O)[C@H](CCN)NC(=O)[C@H](CCN)NC(=O)[C@H]([C@@H](C)O)NC(=O)[C@@H](Cc2ccccc2)NC(=O)[C@H](CCN)NC1=O)[C@@H](C)O [Compound 56] (X1-[Orn]T[dS][Dab][Dab][dF]T[Dab][Dab]T; lactam 4-C) > 500 mg/L

What do you get for CC[C@H](C)CCCCC(=O)N[C@@H](CCN)C(=O)N[C@H](C(=O)N[C@@H](CCCN)C(=O)N[C@H]1CCNC(=O)[C@H]([C@@H](C)O)NC(=O)[C@H](CCN)NC(=O)[C@H](CCN)NC(=O)[C@H]([C@@H](C)O)NC(=O)[C@@H](Cc2ccccc2)NC(=O)[C@H](CCN)NC1=O)[C@@H](C)O [Compound 26] (X1-[Dab]T[Orn][Dab][Dab][dF]T[Dab][Dab]T; lactam 4-C) ? > 500 mg/L

What do you get for CC[C@H](C)CCCCC(=O)N[C@@H](CN)C(=O)N[C@H](C(=O)N[C@H](CCN)C(=O)N[C@H]1CCNC(=O)[C@H]([C@@H](C)O)NC(=O)[C@H](CCN)NC(=O)[C@H](CCN)NC(=O)[C@H](CC(C)C)NC(=O)[C@@H](CC(C)C)NC(=O)[C@H](CCN)NC1=O)[C@@H](C)O [Compound 96] (X1-[Dap]T[dDab][Dab][Dab][dL]L[Dab][Dab]T; lactam 4-C) ? 207 mg/L

* * *

Please provide measured MIC for the entries that follow.
# Test system: Klebsiella pneumoniae KPN+19-15
# Format: cell-based
# Measurement Context: KPN+19-15
# Experimental: The minimal inhibitory concentration (MIC) was determined by the broth microdilution method according to the recommended procedures of the Clinical and Laboratory Standards Institute (CLSI). An appropriate amount of the cyclic lipopeptide compounds prepared in Examples 1-120 and the reference standards were weighed and dissolved in sterile pure water. […]
Bridge positions count the residues as written; N and C are the ends. Square brackets hold non-standard residues; d marks the D form. Peptide text beside a SMILES is read from it. * marks the point of attachment. Heptanoyl(6-Me) = CC(C)CCCCC(=O)*; Sulfomethyl = O=S(=O)(O)C*; Nonanoyl = CCCCCCCCC(=O)*; Dab = NCC[C@H](N)C(=O)O; Dap = NC[C@H](N)C(=O)O
Express it in mg/L; write the number only.

I'd like to know its MIC. The molecule in question is CC(C)CCCCC(=O)N[C@@H](CCN)C(=O)N[C@H](C(=O)N[C@H](CO)C(=O)N[C@H]1CCNC(=O)[C@H]([C@@H](C)O)NC(=O)[C@H](CCN)NC(=O)[C@H](CCN)NC(=O)[C@H]([C@@H](C)O)NC(=O)[C@@H](Cc2ccccc2)NC(=O)[C@H](CCN)NC1=O)[C@@H](C)OCS(=O)(=O)O [Compound 104] ({Heptanoyl(6-Me)}-[Dab]T(Sulfomethyl)[dS][Dab][Dab][dF]T[Dab][Dab]T; lactam 4-C) 0.125

What do you get for CC(C)CCCCC(=O)N[C@@H](CCN)C(=O)N[C@H](C(=O)N[C@H](COCS(=O)(=O)O)C(=O)N[C@H]1CCNC(=O)[C@H]([C@@H](C)O)NC(=O)[C@H](CCN)NC(=O)[C@H](CCN)NC(=O)[C@H]([C@@H](C)O)NC(=O)[C@@H](Cc2ccccc2)NC(=O)[C@H](CCN)NC1=O)[C@@H](C)O [Compound 103] ({Heptanoyl(6-Me)}-[Dab]T[dS](Sulfomethyl)[Dab][Dab][dF]T[Dab][Dab]T; lactam 4-C) ? 0.125

What do you get for CCCCCCCCC(=O)N[C@@H](CCN)C(=O)N[C@H](C(=O)N[C@H](CO)C(=O)N[C@H]1CCNC(=O)[C@H]([C@@H](C)O)NC(=O)[C@H](CCN)NC(=O)[C@H](CCN)NC(=O)[C@H]([C@@H](C)O)NC(=O)[C@@H](Cc2ccccc2)NC(=O)[C@H](CN)NC1=O)[C@@H](C)O [Compound 65] (Nonanoyl-[Dab]T[dS][Dab][Dap][dF]T[Dab][Dab]T; lactam 4-C) ? 0.5
